Parameter activity increase over dofetilide control, less the hit threshold: see the listing below.
target: Voltage-gated inwardly rectifying potassium channel KCNH2 (Homo sapiens); experiment: hERG protection against dofetilide inhibition, confirmation, cell-based, thallium flux, duplicate retest, dofetilide IC70 (AID 1835); conditions: hERG cell line, FluxOR thallium flux, dofetilide-blocked; at 10 µM; hits give high values
Among all 2,400 compounds or so, about 750 (31%) were called active. The list shows a part of the results.
reported.property: activity increase over dofetilide control, less the hit threshold (%)

1) Oc1ccc(N2CCN(C(c3cccnc3)c3nnnn3Cc3ccccc3)CC2)cc1 (stereo not drawn): 0
2) Cc1cc(C(=O)Nc2cccc3ccccc23)c(C)o1: -12
3) O=C(CSc1nnc(NC(=O)c2ccc(S(=O)(=O)N3CCOCC3)cc2)s1)Nc1ccccc1C(F)(F)F: -13
4) CC(C)(C)OC(=O)C(Cl)(C(=O)OC(C)(C)C)c1ccc2nnnn2n1: -27
5) Cc1ccc(-c2csc3nc[nH]c(=S)c23)cc1: 45
6) COc1ccc(Cl)cc1N(C)C(=O)CCNC(=O)Cn1cnc2ccccc2c1=O: -11
7) COc1ccc(C(=O)NNC(=O)CSc2nnc(COc3ccccc3)n2C)cc1: -24
8) CCc1ccc2nc(NC(=O)c3cc(C)on3)sc2c1: 10
9) Cn1c(=S)[nH]c2scc(-c3cccs3)c2c1=O: 60
10) O=C(NC(=S)Nc1cccnc1)c1cc2ccccc2o1: 21
11) COc1cccc(C(=O)NNC(=O)C(=O)Nc2ccc(OC)cc2OC)c1: 19
12) COc1ccc(C(=O)NNC(=O)C(=O)Nc2cccc3ccccc23)cc1: 51
13) Cc1ccc(C)n1-n1c(C)nc2scc(-c3ccccc3)c2c1=O: -20
14) COc1ccc(NC(=O)C2CC3CCC2C3)c(OC)c1 (stereo not drawn): -8
15) Cc1cc(C(=O)N/N=C/c2ccc(O)c([N+](=O)[O-])c2)n[nH]1: -13
16) O=C(NNC(=O)C12CC3CC(CC(O)(C3)C1)C2)c1ccccc1O: -4
17) O=C(Nc1cccnc1)c1ccc(COc2ccccc2Br)o1: -3
18) S=c1[nH]cnc2scc(-c3ccc(Cl)cc3)c12: 22
19) COc1cccc(CCNS(=O)(=O)CCNC(=O)c2cccc(OC)c2)c1: -15
20) Cn1cc(/C=N/n2cnc3scc(-c4ccc(Cl)cc4)c3c2=O)c2ccccc21: -10
21) S=c1[nH]c(-c2cccs2)cn1-c1ccccc1: -5
22) O=C(Nc1cccnc1)c1cc(-c2cccs2)on1: -16
23) CC(C1CC2CCC1C2)n1c(-c2cccs2)n[nH]c1=S (stereo not drawn): -4

* * *

target: Voltage-gated inwardly rectifying potassium channel KCNH2 (Homo sapiens) (UniProt Q12809); assay: hERG protection against dofetilide inhibition, confirmation, cell-based, thallium flux, duplicate retest, dofetilide IC70 (AID 1835); conditions: hERG cell line, FluxOR thallium flux, dofetilide-blocked; at 10 µM
Sequence (Q12809 whole entry, looked up): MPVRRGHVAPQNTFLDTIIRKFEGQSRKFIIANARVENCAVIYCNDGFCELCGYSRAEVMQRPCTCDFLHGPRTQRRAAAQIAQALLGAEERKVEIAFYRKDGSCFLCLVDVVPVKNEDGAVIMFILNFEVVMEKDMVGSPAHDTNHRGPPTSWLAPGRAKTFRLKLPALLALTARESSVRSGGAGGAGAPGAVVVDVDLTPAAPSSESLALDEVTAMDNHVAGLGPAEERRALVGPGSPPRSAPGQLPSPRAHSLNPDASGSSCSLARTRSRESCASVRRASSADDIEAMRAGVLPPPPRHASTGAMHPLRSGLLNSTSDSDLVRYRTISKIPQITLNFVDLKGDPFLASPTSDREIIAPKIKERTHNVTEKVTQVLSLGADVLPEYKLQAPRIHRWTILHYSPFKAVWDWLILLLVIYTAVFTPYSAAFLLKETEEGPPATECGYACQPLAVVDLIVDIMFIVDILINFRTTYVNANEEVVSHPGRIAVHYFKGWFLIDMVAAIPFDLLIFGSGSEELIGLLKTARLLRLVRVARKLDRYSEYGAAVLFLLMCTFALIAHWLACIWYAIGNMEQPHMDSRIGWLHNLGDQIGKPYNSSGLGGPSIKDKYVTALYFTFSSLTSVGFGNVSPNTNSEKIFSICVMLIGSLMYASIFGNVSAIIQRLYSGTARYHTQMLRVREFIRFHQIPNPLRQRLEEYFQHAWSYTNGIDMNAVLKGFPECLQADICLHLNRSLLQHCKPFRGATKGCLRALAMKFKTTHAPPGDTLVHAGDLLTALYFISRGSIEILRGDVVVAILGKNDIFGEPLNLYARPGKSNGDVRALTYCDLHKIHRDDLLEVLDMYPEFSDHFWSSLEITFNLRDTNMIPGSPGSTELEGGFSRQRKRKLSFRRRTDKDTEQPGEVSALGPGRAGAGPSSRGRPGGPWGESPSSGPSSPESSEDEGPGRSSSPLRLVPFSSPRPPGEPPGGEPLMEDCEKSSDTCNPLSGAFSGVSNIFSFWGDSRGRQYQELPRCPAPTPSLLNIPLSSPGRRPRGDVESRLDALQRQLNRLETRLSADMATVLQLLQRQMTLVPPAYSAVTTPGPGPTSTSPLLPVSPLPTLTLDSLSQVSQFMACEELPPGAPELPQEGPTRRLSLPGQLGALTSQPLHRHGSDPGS
In all, about 2,400 compounds went through this assay and about 750 (31%) were called active.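 The calls were made as follows: active = median signal gain over dofetilide-blocked control wells reaching their mean plus 3 SD, so readout 1 at least 0; inactive = the rest.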 The list shows a part of the results.
Labels: yes (active), no (inactive)

1) CCCCc1c(O)nc(SCC(=O)N2CCOCC2)[nH]c1=O: no
2) Cc1ccc(C(=O)c2ccccc2C(=O)O)c(O)c1: no
3) Nc1nc2c(s1)CCc1c-2cnn1-c1ccccc1: no
4) CN(C)c1ccc(NC(=O)CCCc2ccccc2)cc1: no
5) CC(C)(C)c1ccc(Cn2nc(CC(=O)O)c3ccccc3c2=O)cc1: no
6) CCCCC(=O)Nc1ccc(NCc2ccc(C)s2)cc1: yes
7) O=C(/C=C/c1ccccc1Cl)c1ccccc(=O)c1O: yes
8) Cc1ccc(N=Cc2cc(Cl)cc(Cl)c2O)nc1: yes
9) Cc1ccc(C(=O)NNc2cc(N3CCCC3)nc(N3CCCC3)n2)cc1: no
10) CC(=O)N1c2ccc(N=Cc3cc(Br)cc(Br)c3O)cc2CC1C (centres undefined): no
11) Cc1ccc(/C=C/C(=O)c2ccccc(=O)c2O)c(C)c1: yes
12) CCc1nnc(NC(=O)c2cccc(S(=O)(=O)N3CCN(c4ccccc4)CC3)c2)s1: no
13) C=C(C)C1CC=C(C)/C(=N/NC(=O)CCC(=O)Nc2ccccc2Cl)C1 (centres undefined): no
14) Oc1c(Br)cc(Br)cc1C=Nc1ccc2c(c1)OCCO2: no
15) Nc1ccc2oc(-c3ccccc3Cl)cc(=O)c2c1O: no
16) CC(C)=CC(=O)OCC(=O)Nc1ccc(SC(F)F)cc1: no
17) Cc1ccc(NS(=O)(=O)c2ccc(NC(=O)c3ccccc3C(=O)O)cc2)cc1C: no
18) Cc1ccc(OCCC(=O)OC(C)C(=O)Nc2ccc(Cl)cn2)cc1 (centres undefined): no
19) S=c1nn[nH]n1C12CC3CC(CC(C3)C1)C2: yes
20) Oc1c(Cl)cc(Cl)cc1C=Nc1ccc(Br)cc1: yes
21) Cc1ccc(C)c(/C=C/C(=O)c2ccccc(=O)c2O)c1: no
22) O=c1c2cc(Br)ccc2nc(-c2ccccc2)n1O: yes
23) Cc1nc2c(C(=O)NCCc3ccccc3)c[nH]n2c(=O)c1Cl: no
24) Cc1ccc(NC(=O)CCC(=O)OCC(F)(F)C(F)F)cc1: no

* * *

biological target: Voltage-gated inwardly rectifying potassium channel KCNH2 (Homo sapiens) (UniProt Q12809); assay: hERG protection against dofetilide inhibition, confirmation, cell-based, thallium flux, duplicate retest, dofetilide IC70 (AID 1835); settings: hERG cell line, FluxOR thallium flux, dofetilide-blocked; at 10 µM
The campaign covered roughly 2,400 compounds. About 750 (31%) were called active.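 The calls were made as follows: active = median signal gain over dofetilide-blocked control wells reaching their mean plus 3 SD, so readout 1 at least 0; inactive = the rest.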 The list shows a part of the results.
Labels: active, inactive

1) CC(C)Oc1cc(S(=O)(=O)N2CCCCC2)ccc1N: inactive
2) CC(=O)n1nc(-c2ccncc2)nc1SCC(=O)Nc1cccc(Cl)c1: inactive
3) Cc1c(Cl)c([N+](=O)[O-])nn1CC(=O)NCC(C)C: inactive
4) CCC(C)(C)C1CCc2c(sc(NC(=O)c3ccccc3C(=O)O)c2C#N)C1 (stereo unspecified): active
5) Cc1cccc(/C=N/Nc2ccc3ccccc3n2)c1: inactive
6) O=C(c1ccc(CS(=O)c2cccc(Cl)c2)o1)N1CCCCCC1 (stereo unspecified): inactive

* * *

biological target: Voltage-gated inwardly rectifying potassium channel KCNH2 (Homo sapiens); test: hERG protection against dofetilide inhibition, confirmation, cell-based, thallium flux, duplicate retest, dofetilide IC70 (AID 1835); details: hERG cell line, FluxOR thallium flux, dofetilide-blocked; at 10 µM; hits give high values
In all, about 2,400 compounds went through this assay and about 750 (31%) were called active. This is one part of the list.
reported.property: activity increase over dofetilide control, less the hit threshold (%)

1) O=[N+]([O-])c1ccc(S(=O)(=O)Nc2ccc(S(=O)(=O)N3CCCC3)cc2)cc1: -23
2) O=C(CN1CCN(c2ccc(Cl)cc2)CC1)Nc1ccc(F)cc1: -15
3) COc1ccc(CCNC(=O)C(=O)Nc2ccc3c(c2)OCO3)cc1OC: -22
4) O=C(NC1CCCCC1)c1ccc(COCC(F)(F)F)o1: -5
5) Cc1ccc(S(=O)(=O)NC(=S)NC2CCCCC2)cc1: 3
6) CCC(=O)Nc1cc(=O)[nH]c2ncnn12: -24
7) COc1ccc(C)cc1S(=O)(=O)NC1CCCCC1: -5
8) O=C(NC(=S)N1CCN(c2ccc(F)cc2)CC1)c1cccs1: 25
9) COc1ccc(CCNC(=O)c2ccc3c(c2)OCO3)cc1: -16
10) O=S(=O)(NC(=S)NC1CCCCC1)c1ccc(Br)cc1: 12
11) O=c1oc2ccccc2c(NC2CCCCC2)c1NS(=O)(=O)c1ccc(Cl)cc1: -6

* * *

target: Voltage-gated inwardly rectifying potassium channel KCNH2 (Homo sapiens); test: hERG protection against dofetilide inhibition, confirmation, cell-based, thallium flux, duplicate retest, dofetilide IC70 (AID 1835); details: hERG cell line, FluxOR thallium flux, dofetilide-blocked; at 10 µM
Among all 2,400 compounds or so, about 750 (31%) were called active.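 How the source made its calls: active means median signal gain over dofetilide-blocked control wells reaching their mean plus 3 SD, so readout 1 at least 0; inactive means the rest.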 This is one part of the list.
Labels: TRUE (active), FALSE (inactive)

1. COc1ccc(N2CCN(C(=O)c3ccc(-c4ccccc4)cc3)CC2)cc1: FALSE
2. Brc1ccc(C2=CC(c3ccco3)n3nnnc3N2)cc1 (stereo not drawn): FALSE
3. COc1ccc(C(=O)NNC(=O)C(=O)NC2CCCCC2)cc1: TRUE
4. COc1ccccc1C(=O)NNC(=O)C(=O)Nc1ccc(C)cc1: TRUE
5. COc1cc(OC)cc(C(=O)NC(=S)N(Cc2ccccc2)C(C)C)c1: TRUE
6. CCOC(=O)N1CCN(C(=O)CSc2nnc(-c3ccccc3OC)o2)CC1: FALSE
7. COc1ccccc1C(=O)NNC(=O)C(=O)Nc1ccc(C)c(Cl)c1: TRUE
8. O=C(COc1ccc(Cl)cc1Cl)NC(=S)N1CCCc2ccccc21: TRUE
9. Cc1cc(NC(=O)/C(C#N)=C/c2ccco2)n(-c2ccccc2)n1: FALSE
10. O=C(COc1ccc(Cl)cc1)NNC(=O)C(=O)NC1CCCCC1: FALSE
11. CC(=O)/C=C1/C(=O)Nc2ccccc21: FALSE
12. COc1ccc(C(=O)O/N=C(\N)c2ccccn2)cc1[N+](=O)[O-]: FALSE
13. COc1cccc(/C=C2/C(=O)NN(c3ccc(C)c(C)c3)C2=O)c1: FALSE
14. O=C(NCCCN1CCOCC1)c1ccc(CS(=O)(=O)Cc2ccccc2Cl)o1: FALSE
15. COc1cc(OC)cc(C(=O)OCC(=O)N(C)c2ccccc2)c1: FALSE
16. N/C(=N\OCc1ccccc1)c1nonc1N: FALSE
17. COc1ccc(C(=O)NCc2nnc(SCC(=O)NC3CCCCC3)n2C)cc1: FALSE
18. Cc1ccc2c(c1)c1nnc(SCC(=O)Nc3ccc(N(C)C)cc3)nc1n2CC(=O)O: FALSE
19. CCCOc1ccc(C(=O)NNC(=S)NC(=O)c2ccccc2)cc1: FALSE
20. COc1ccc(NC(=O)c2ccccc2SC)cc1OC: FALSE
21. COc1ccc(CN(Cc2cccnc2)C(=S)NCCc2ccccc2)cc1OC: FALSE
22. O=C(COc1ccc(Br)cc1Cl)NC(=S)N1CCc2ccccc21: FALSE
23. COc1ccccc1CC(=O)Nc1ccc(OC)c(OC)c1: FALSE
